Tested on: panel of 55 breast cancer cell lines
Test: Cell growth inhibition assay (Cell Titer Glo, 72 h, 9 doses; GI50, TGI, LC50)
Assay type: cell-based, human
Details: BT474 cell line; censored GI50 values; value is the negative log10 of mol/L
Consider the following molecules; for each one, report its GI50.
Returns: the value as a bare number; no unit string appended.

So what's the measured GI50 for this one? Oc1cc(-c2nc(-c3ccccc3)[nH]c2-c2ccncc2)ccc1Cl
4.73

So what's the measured GI50 for this one? O=S(=O)(CC1CS1)c1ccc(Oc2ccccc2)cc1 (centres unmarked)
4.99

So what's the measured GI50 for this one? COc1cc2ncnc(Nc3cccc(Cl)c3)c2cc1OC
6.17

So what's the measured GI50 for this one? CCn1cc(-c2ccnc3[nH]c(-c4cccc(CN(C)C)c4)cc23)c(-c2ccc(NC(=O)N(C)C)cc2)n1
5.19

So what's the measured GI50 for this one? Cc1cc(C(C)Nc2ccccc2)c2nc(N3CCOCC3)cc(=O)n2c1 (centres unmarked)
5.10
